- system under test: T1, BoNT/F1 (proteolytic BoNT/F) (Clostridium botulinum, UniProt A7GBG3 1-1278)
- T1 sequence: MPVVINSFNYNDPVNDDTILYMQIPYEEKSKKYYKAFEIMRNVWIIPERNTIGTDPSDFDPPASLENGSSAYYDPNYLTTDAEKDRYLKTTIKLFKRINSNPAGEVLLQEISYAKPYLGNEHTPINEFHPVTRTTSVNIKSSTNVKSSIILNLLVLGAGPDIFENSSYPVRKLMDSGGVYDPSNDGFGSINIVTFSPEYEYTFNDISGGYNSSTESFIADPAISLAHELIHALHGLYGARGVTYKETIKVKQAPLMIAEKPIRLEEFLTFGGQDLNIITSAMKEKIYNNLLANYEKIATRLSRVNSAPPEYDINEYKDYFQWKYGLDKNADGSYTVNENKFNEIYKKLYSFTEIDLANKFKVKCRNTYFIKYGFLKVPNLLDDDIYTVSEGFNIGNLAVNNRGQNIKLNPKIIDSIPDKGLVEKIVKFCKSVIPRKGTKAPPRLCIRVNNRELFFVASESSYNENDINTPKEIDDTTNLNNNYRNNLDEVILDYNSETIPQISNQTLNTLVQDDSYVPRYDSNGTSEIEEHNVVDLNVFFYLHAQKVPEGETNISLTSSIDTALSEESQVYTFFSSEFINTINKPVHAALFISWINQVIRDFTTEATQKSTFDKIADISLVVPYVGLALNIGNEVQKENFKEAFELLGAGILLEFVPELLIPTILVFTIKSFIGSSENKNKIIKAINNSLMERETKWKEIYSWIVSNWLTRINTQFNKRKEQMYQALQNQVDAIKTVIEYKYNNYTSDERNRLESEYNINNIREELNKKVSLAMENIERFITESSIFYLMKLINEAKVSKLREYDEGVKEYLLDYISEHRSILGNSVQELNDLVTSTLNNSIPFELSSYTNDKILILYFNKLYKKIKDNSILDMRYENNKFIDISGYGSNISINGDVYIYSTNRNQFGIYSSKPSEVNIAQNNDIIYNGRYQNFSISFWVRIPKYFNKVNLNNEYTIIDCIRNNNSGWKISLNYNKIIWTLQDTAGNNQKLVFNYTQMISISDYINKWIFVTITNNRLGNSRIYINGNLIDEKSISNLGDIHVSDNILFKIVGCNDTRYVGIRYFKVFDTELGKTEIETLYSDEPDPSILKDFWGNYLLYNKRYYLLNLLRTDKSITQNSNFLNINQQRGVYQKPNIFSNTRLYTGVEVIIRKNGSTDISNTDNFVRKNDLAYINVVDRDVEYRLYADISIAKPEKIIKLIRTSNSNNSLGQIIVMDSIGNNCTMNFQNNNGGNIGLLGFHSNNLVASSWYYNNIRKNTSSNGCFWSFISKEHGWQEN
- assay: IgG
The following binders are listed with their measured Kd values.
Quick note: give the figure in nM, leave out the unit.

binder	measurement unit	Kd
6F7 IgG (antibody, V domains shown, IgG from scFv V genes) VH: QVQLQESGPGLVKPSQTVSLTCTVAGYSITNGNHWWNWIRQVSGSKLEWIGYITSSGSTDSNPSLKSRISITRDTSKNQLFLQLNSVTTEDIATYYCARSSNYFFHVLDYWGQGTSVTVSS VL: DIVLTQTPAIMSASPGEKVTMTCSASSSVSYMHWFQQKPGTSPKLWIYSTSNLASGVPARFSGSGSGTSYSLTISRMEAEDAATYYCQQRSSYPPTFGGGTRLEIK	nM	0.57

Value of measured Kd for the entry 6F3 IgG (antibody, V domains shown, IgG from scFv V genes) VH: QVQLQQSGPEVVKPGASVKISCKASGYTFADYWIGWTKQGPGHGLEWIGHIYPGGGYINYNEKFKGKATLTADMSSSTAYMQFSSLTSEDSAIYYCARVTMVESGDWYFDVWGTGTTVTVSS VL: ENVLTQSPAIMSASLGEEITLTCSASSSVSYMHWYQQKSGTSPKLWIYYTSNLASGVPARFSGSGSGTSYSLTISSMEAEDAATYYCQQWSSNPYTFGGGTKLEIK : 2.39
